- target or test system: B.1.351 (S1)
- test name: ELISA, heat map
measured parameter: binding result

[[record]]
binder = "22-F7 (antibody, V domains shown, also called bin C) VH: QVQLVESGGGVVQPGRSLRLSCAASGFSFTNYGMHWVRQAPGKGLEWVAVISYDGSIKYYEDSLKGRFTVSRDNSKKTLYLQMNSLRAEDTAVYYCTRERGTGIDYWGLGTLVTVSS VL: QSALTQPASVSGYPGQSITLSCTGTKSDIGAYNYVSWYQQHPGKAPKLMVYDVSNRPSGLSNRFSGSKSDNTASLTISGLQAEDEAHYYCSSYTTSGTVVFGGGTKVTVL"
result = "binds"

